# Tested on: PC-3 prostate
# protocol_details: NCI-60 one-dose screen, 48 h (100 = growth as untreated, 0 = no growth, -100 = all killed)
# condition: 10 µM unless noted
# Method: Growth inhibition of the PC-3 human tumor cell line is measured as a screen for anti-cancer activity. Cells are grown in 96 well plates and exposed to the test compound for 48 hours. Compounds are tested at a single concentration, which is 10^-5 M for most compounds. The reported endpoint is percent growth (GI% or GIPRCNT), where numbers from 0 - 100% represent growth inhibition, and numbers from -100% - 0 represent cell death. For example, a value of 40 represents 60% growth inhibition. […]
This is part of a sample that, as a whole, favours compounds with a hit. Of some 83,000 tested, about 20% had one in any assay.
Label Fulfilled when growth is at or above 60%; otherwise label Not fulfilled.

CC1=C(C(=O)OC(C)C)C(c2cccc(O)c2)NC(=S)N1 (centres undefined): Fulfilled
O=C(/C=C/c1ccc(-c2ccccc2)cc1)c1nc2ccccc2n1Cc1ccc(Br)cc1: Not fulfilled
COc1cc2c(c(OC)c1OC)C(=O)CC(c1cccc(NC(=O)c3cccc([N+](=O)[O-])c3)c1)O2 (centres undefined): Not fulfilled

**Q:** Does C/C(=N\N=C\c1cc([N+](=O)[O-])ccc1Cl)c1ccc2c(c1)Nc1ccccc1S2 have a reported growth of at least 60%?
**A:** Fulfilled

**Q:** Does Cc1ccc([C@H]2C(C(=O)c3ccc(Cl)cc3)C3(N[C@@H]2c2ccccc2)C(=O)Nc2ccc(Br)cc23)cc1 (some centres undefined) have a reported growth of at least 60%?
**A:** Not fulfilled

**Q:** Does Cc1ccc(-c2nc(Nc3ccccc3S(N)(=O)=O)c3ccccc3n2)cc1 have a reported growth of at least 60%?
**A:** Fulfilled

**Q:** Does CN(C)c1nc(NCCNS(=O)(=O)c2ccc(C(=O)/C=C/c3ccc(F)cc3)cc2)nc(Nc2ccc(F)cc2)n1 have a reported growth of at least 60%?
**A:** Not fulfilled

**Q:** Does Cc1ccc(Cc2cnc(NC(=O)c3ccc(/C=C4\SC(=S)N(C)C4=O)cc3)s2)cc1 have a reported growth of at least 60%?
**A:** Not fulfilled

----------
# Tested on: SF-268 CNS
# protocol_details: NCI-60 one-dose screen, 48 h
# condition: 10 µM unless noted
This is part of a sample that, as a whole, favours compounds with a hit. Of some 83,000 tested, about 20% had one in any assay. The source made the active and inactive calls. How the source made its calls: active means growth percent below 10; inactive means the rest.
Entry note: the call must match one of t = active, f = inactive

Take a look at these entries with their results.
O=C(/C=C/c1ccc(O)c(O)c1)NC1CCOC1O (configuration not stated): f
Cn1cc(-c2cc(N)n3nc(-c4cn(C)c5ccc(Cl)cc45)cc3n2)c2ccccc21: f
Cc1ccccc1[C@H]1C(C(=O)c2ccc(Cl)cc2)C2(N[C@@H]1c1ccccc1)C(=O)Nc1ccc(Br)cc12 (some centres not stated): f
COc1ccc(/C=N/NC(=O)Cn2nc(Cc3ccc(OC)cc3)c3onc(C)c3c2=O)cc1: f
Cc1cccc(NC(=O)CN2CCN(c3ncnc4c3cnn4-c3ccccc3)CC2)c1: f

**Q:** # fetch the recorded call for Cc1nc(Nc2ncc(C(=O)Nc3c(C)cccc3Cl)s2)cc(N2CCN(CCCNC(=O)COc3ccc(C4CCC(=O)NC4=O)cc3)CC2)n1 (configuration not stated) here
**A:** f

**Q:** # fetch the recorded call for CCOc1ccc(C(=O)NC(=S)Nc2ccc(S(N)(=O)=O)cc2)cc1 here
**A:** f

**Q:** # fetch the recorded call for C#CCOc1cc(N(CC)CC)ccc1C(C(=O)NC(C)(C)C)N(C(=O)C1CCc2cc(F)ccc2O1)c1ccc(F)cc1 (configuration not stated) here
**A:** f

**Q:** # fetch the recorded call for N#Cc1c(-c2cccc3ccccc23)cc(-c2cccc(OCC(=O)O)c2)[nH]c1=O here
**A:** f

**Q:** # fetch the recorded call for O=C(/C=C/c1ccc(-c2ccccc2)cc1)c1nc2ccccc2n1Cc1ccc(Br)cc1 here
**A:** f

Origin of measurements: PubChem BioAssay (NCI)
